target-system: human GLP-1 receptor (human, UniProt P43220 24-463)
assay-explanation: cell-based or functional assay
Numbered stars: 1 amine (or outer) side, 2 acyl side, 3 side chain; on linkers, the order of the positions; unused ones are H or OH. Square brackets hold non-standard residues; d marks the D form. Side chains are listed from the residue outwards. * marks the point of attachment. C18 diacid = O=C(O)CCCCCCCCCCCCCCCCC(=O)*; γGlu = O=C(O)[C@H](CCC(=O)[*:2])N[*:1]; Chem. 28 = not defined here; Chem. 29 = not defined here; AEEA = NCCOCCOCC(=O)O; Aib = CC(C)(N)C(=O)O
List of hGLP-1R Potency, no HSA, EC50 [pM] values.
The response must be a number in pM with no trailing unit.

Example entries begin here.
# binder, hGLP-1R Potency, no HSA, EC50 [pM] (pM)
data = [
    ("Compound 107 (reading uncertain) peptide: H[Aib]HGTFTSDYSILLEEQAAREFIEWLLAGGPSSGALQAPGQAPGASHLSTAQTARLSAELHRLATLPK(Chem. 28)TETGSGSP-NH2", 4.1),
    ("Compound 18 (reading uncertain) peptide: Y[Aib]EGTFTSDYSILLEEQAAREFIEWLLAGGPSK(Chem. 29)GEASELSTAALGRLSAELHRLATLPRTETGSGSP-NH2", 52.8),
    ("Compound 93 (peptide) peptide: H[Aib]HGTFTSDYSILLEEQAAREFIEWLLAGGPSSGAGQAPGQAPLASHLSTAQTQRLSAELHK([AEEA-AEEA-γGlu-C18 diacid])LATLPRTETGSGSP-NH2", 4.11),
]

Let us move to another entry and its hGLP-1R Potency, no HSA, EC50 [pM].
Q: I am curious: what hGLP-1R Potency, no HSA, EC50 [pM] value has been reported for Compound 70 (peptide) peptide: H[Aib]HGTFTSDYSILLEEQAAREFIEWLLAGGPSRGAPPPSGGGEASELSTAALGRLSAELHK([AEEA-AEEA-γGlu-C18 diacid])LATLPRTETGSGSP-NH2 ?
A: 3.48
